// MIC collected for Salmonella Panama 6117
Your answer is read as µg/mL, so omit the unit and give the number.

Worked cases, MIC given:
| structure | readout type | measure unit | result |
| --- | --- | --- | --- |
| CC[C@H]1OC(=O)[C@H](C)[C@@H](O[C@H]2C[C@@](C)(OC)[C@@H](O)[C@H](C)O2)[C@H](C)[C@@H](O[C@@H]2O[C@H](C)C[C@H](N(C)C)[C@H]2O)[C@](C)(O)C[C@@H](C)CN(C(=O)Nc2ccncc2)[C@H](C)[C@@H](O)[C@]1(C)O | MIC | µg/mL | 25 |
| CC[C@H]1OC(=O)[C@H](C)[C@@H](O[C@H]2C[C@@](C)(OC)[C@@H](O)[C@H](C)O2)[C@H](C)[C@@H](O[C@@H]2O[C@H](C)C[C@H](N(C)C)[C@H]2O)[C@](C)(O)C[C@@H](C)CN[C@H](C)[C@@H](O)[C@]1(C)O | MIC | µg/mL | 3.12 |
| CC[C@H]1OC(=O)[C@H](C)[C@@H](O[C@H]2C[C@@](C)(OC)[C@@H](O)[C@H](C)O2)[C@H](C)[C@@H](O[C@@H]2O[C@H](C)C[C@H](N(C)C)[C@H]2O)[C@](C)(O)C[C@@H](C)CN(C(=O)Nc2ccccc2)[C@H](C)[C@@H](O)[C@]1(C)O | MIC | µg/mL | 25 |

MIC reading for `CC[C@H]1OC(=O)[C@H](C)[C@@H](O[C@H]2C[C@@](C)(OC)[C@@H](O)[C@H](C)O2)[C@H](C)[C@@H](O[C@@H]2O[C@H](C)C[C@H](N(C)C)[C@H]2O)[C@](C)(O)C[C@@H](C)CN(C(=O)NC(C)C)[C@H](C)[C@@H](O)[C@]1(C)O` : 6.25
